Overview of reported Mean % WT Binding across a group of binders:
study target: human CD33 S181A (human, UniProt P20138 18-364)
Sequence (P20138 18-364 S181A limits assumed): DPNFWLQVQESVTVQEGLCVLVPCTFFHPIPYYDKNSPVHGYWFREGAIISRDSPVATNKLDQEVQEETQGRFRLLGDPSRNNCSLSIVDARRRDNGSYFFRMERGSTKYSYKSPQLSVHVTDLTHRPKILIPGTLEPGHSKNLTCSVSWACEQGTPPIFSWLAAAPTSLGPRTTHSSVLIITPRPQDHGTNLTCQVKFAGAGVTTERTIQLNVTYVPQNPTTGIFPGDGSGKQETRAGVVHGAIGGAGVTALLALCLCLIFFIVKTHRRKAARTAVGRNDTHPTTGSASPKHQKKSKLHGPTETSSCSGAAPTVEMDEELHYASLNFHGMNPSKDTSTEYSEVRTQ
method summary: alanine scan, flow cytometry, HEK293-T;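 also: antibody binding to each alanine-substituted CD33 mutant expressed transiently in HEK293-T, read as fluorescence minus background, mean of duplicates, relative to wild-type CD33 set as 100%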
Use % as the unit, but write only the number.

{"binder": "Refmab #2 (antibody, V domains shown, In the alanine scan antibodies were used as IgG or Fab) VH: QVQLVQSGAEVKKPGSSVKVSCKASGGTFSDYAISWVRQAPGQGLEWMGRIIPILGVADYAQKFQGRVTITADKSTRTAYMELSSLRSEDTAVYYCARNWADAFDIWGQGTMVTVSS VL: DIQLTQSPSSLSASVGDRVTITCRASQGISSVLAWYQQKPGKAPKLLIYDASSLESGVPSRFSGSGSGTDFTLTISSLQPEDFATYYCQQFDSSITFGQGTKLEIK", "value units": "%", "Mean % WT Binding": 116}

Input line: I would be grateful if you could share the reported Mean % WT Binding for Refmab #3 (antibody, V domains shown, In the alanine scan antibodies were used as IgG or Fab) VH: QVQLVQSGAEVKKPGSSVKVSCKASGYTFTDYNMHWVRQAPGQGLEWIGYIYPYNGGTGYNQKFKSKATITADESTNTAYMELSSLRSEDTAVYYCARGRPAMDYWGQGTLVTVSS VL: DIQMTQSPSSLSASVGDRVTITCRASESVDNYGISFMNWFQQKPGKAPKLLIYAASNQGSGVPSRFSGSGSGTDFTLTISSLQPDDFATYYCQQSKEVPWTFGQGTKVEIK .
Output line: 128

Input line: Give the measured Mean % WT Binding of Refmab #4 (antibody, V domains shown, In the alanine scan antibodies were used as IgG or Fab) VH: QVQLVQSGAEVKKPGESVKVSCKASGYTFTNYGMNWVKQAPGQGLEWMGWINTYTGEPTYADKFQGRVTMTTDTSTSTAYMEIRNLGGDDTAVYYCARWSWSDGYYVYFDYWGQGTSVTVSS VL: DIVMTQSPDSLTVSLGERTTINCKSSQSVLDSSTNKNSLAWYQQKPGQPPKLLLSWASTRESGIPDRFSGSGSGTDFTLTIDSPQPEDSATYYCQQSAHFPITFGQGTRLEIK .
Output line: 114

Input line: Which Mean % WT Binding reading was recorded for the binder Refmab #1 (antibody, V domains shown, In the alanine scan antibodies were used as IgG or Fab; also called hP67.6) VH: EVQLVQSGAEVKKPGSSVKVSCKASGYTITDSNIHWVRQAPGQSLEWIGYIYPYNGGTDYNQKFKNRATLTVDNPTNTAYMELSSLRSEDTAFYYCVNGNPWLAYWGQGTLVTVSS VL: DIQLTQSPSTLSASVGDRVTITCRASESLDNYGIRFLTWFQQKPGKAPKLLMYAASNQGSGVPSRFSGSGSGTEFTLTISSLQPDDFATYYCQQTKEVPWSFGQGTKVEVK ?
Output line: 85.5
